ASSAY READOUT: pIC50
Bear in mind: pIC50 is minus log10 of a mol/L concentration; give just that figure.

Tested system UniProtKB P11473; pIC50 recorded for C=C1CC[C@H](O)C/C1=C/C=C1\CCC[C@]2(C)[C@@H]([C@H](C)CC(=O)O)CC[C@@H]12 was 4.15
